- TEST_TARGET: Oxytocin receptor (Homo sapiens, UniProt P30559)
- Sequence (P30559 whole entry): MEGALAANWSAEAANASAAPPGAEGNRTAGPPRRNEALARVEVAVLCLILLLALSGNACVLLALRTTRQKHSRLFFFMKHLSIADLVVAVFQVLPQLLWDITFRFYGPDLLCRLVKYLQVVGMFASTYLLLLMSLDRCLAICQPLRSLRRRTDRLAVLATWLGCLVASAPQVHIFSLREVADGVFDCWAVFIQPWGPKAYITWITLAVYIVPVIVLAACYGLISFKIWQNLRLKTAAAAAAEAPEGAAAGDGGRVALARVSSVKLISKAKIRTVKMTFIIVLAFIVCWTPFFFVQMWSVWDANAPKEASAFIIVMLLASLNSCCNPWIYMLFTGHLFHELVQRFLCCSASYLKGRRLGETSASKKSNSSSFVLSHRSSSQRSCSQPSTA
- METHOD_DESCRIPTION: Agonist activity at human OT receptor expressed in CHO-K1 cells by luciferase reporter gene assay
- Format: functional, cell-based
- COND: read-out: pEC50 (converted)
Numbered stars: 1 amine (or outer) side, 2 acyl side, 3 side chain; on linkers, the order of the positions; unused ones are H or OH. Bridge positions count the residues as written; N and C are the ends. Square brackets hold non-standard residues; d marks the D form. Peptide text beside a SMILES is read from it. * marks the point of attachment. Orn(Me) = CN(CCC[C@H](N[*:1])C(=O)[*:2])[*:3]; Ala(cPent) = N[C@@H](CC1CCCC1)C(=O)O; Bta = N[C@@H](Cc1csc2ccccc12)C(=O)O; 2Thi = N[C@@H](Cc1cccs1)C(=O)O; Cha = N[C@@H](CC1CCCCC1)C(=O)O; Orn = NCCC[C@H](N)C(=O)O; Dab = NCC[C@H](N)C(=O)O; NHCH2CH2OH = OCCN*

COMPOUND	EC50
CC[C@H](C)[C@@H]1NC(=O)[C@H](Cc2ccccc2)NC(=O)[C@@H](N)CSSC[C@@H](C(=O)N2CCC[C@H]2C(=O)N[C@@H](CCCN)C(=O)NCC(N)=O)NC(=O)[C@H](CC(N)=O)NC(=O)[C@H](CC(=O)NC)NC1=O (H-CFID(NHMe)NCP[Orn]G-NH2; disulfide 1-6)	> 10 µM
CC[C@H](C)[C@@H]1NC(=O)[C@H](Cc2ccccc2)NC(=O)[C@@H](N)CSSC[C@@H](C(=O)N2CCC[C@H]2C(=O)N[C@@H](CCCN)C(=O)NCC(N)=O)NC(=O)[C@H](CC(N)=O)NC(=O)[C@H](CC(=O)NCCO)NC1=O (H-CFID(NHCH2CH2OH)NCP[Orn]G-NH2; disulfide 1-6)	> 10 µM
CC[C@H](C)[C@@H]1NC(=O)[C@H](Cc2ccccc2)NC(=O)[C@@H](N)CSSC[C@@H](C(=O)N2CCC[C@H]2C(=O)N[C@@H](CCCN)C(=O)NCC(N)=O)NC(=O)[C@H](CC(N)=O)NC(=O)[C@H](CCC(N)=O)NC1=O (H-CFIQNCP[Orn]G-NH2; disulfide 1-6)	> 10 µM
CC[C@H](C)[C@@H]1NC(=O)[C@H](Cc2csc3ccccc23)NC(=O)[C@@H](N)CSSC[C@@H](C(=O)N2CCC[C@H]2C(=O)N[C@@H](CCN)C(=O)NCC(N)=O)NC(=O)[C@H](CC(N)=O)NC(=O)[C@H](CCC(N)=O)NC1=O (H-C[Bta]IQNCP[Dab]G-NH2; disulfide 1-6)	> 10 µM
CC[C@H](C)[C@@H]1NC(=O)[C@H](Cc2ccccc2)NC(=O)[C@@H](N)CSSC[C@@H](C(=O)N2CCC[C@H]2C(=O)N[C@@H](CCCNC(C)C)C(=O)NCC(N)=O)NC(=O)[C@H](CC(N)=O)NC(=O)[C@H](CCCC(N)=O)NC1=O [SELEPRESSIN]	1.1 µM
CC[C@H](C)[C@@H]1NC(=O)[C@H](Cc2cccs2)NC(=O)[C@@H](N)CSSC[C@@H](C(=O)N2CCC[C@H]2C(=O)N[C@@H](CCCN)C(=O)NCC(N)=O)NC(=O)[C@H](CC(N)=O)NC(=O)[C@H](CC(N)=O)NC1=O (H-C[2Thi]INNCP[Orn]G-NH2; disulfide 1-6)	> 10 µM
CC[C@H](C)[C@@H]1NC(=O)[C@H](Cc2ccccc2)NC(=O)[C@@H](N)CSSC[C@@H](C(=O)N2CCC[C@H]2C(=O)N[C@@H](CCN)C(=O)NCC(N)=O)NC(=O)[C@H](CC(N)=O)NC(=O)[C@H](CC(N)=O)NC1=O (H-CFINNCP[Dab]G-NH2; disulfide 1-6)	> 10 µM
CC[C@H](C)[C@@H]1NC(=O)[C@H](Cc2ccccc2)NC(=O)[C@@H](N)CSSC[C@@H](C(=O)N2CCC[C@H]2C(=O)N[C@@H](CCCNC)C(=O)NCC(N)=O)NC(=O)[C@H](CC(N)=O)NC(=O)[C@H](CC(N)=O)NC1=O (H-CFINNCP[Orn(Me)]G-NH2; disulfide 1-6)	> 10 µM
CC[C@H](C)[C@@H]1NC(=O)[C@H](CC2CCCCC2)NC(=O)[C@@H](N)CSSC[C@@H](C(=O)N2CCC[C@H]2C(=O)N[C@@H](CCN)C(=O)NCC(N)=O)NC(=O)[C@H](CC(N)=O)NC(=O)[C@H](CCC(N)=O)NC1=O (H-C[Cha]IQNCP[Dab]G-NH2; disulfide 1-6)	> 10 µM
CC[C@H](C)[C@@H]1NC(=O)[C@H](Cc2ccccc2)NC(=O)[C@@H](N)CSSC[C@@H](C(=O)N2CCC[C@H]2C(=O)N[C@@H](CCCN)C(=O)NCC(N)=O)NC(=O)[C@H](CC(N)=O)NC(=O)[C@H](CCC(=O)NC)NC1=O (H-CFIE(NHMe)NCP[Orn]G-NH2; disulfide 1-6)	0.174 µM
CC[C@H](C)[C@@H]1NC(=O)[C@H](CC2CCCC2)NC(=O)[C@@H](N)CSSC[C@@H](C(=O)N2CCC[C@H]2C(=O)N[C@@H](CCN)C(=O)NCC(N)=O)NC(=O)[C@H](CC(N)=O)NC(=O)[C@H](CC(N)=O)NC1=O (H-C[Ala(cPent)]INNCP[Dab]G-NH2; disulfide 1-6)	> 10 µM
CC[C@H](C)[C@@H]1NC(=O)[C@H](Cc2ccccc2)NC(=O)[C@@H](N)CSSC[C@@H](C(=O)N2CCC[C@H]2C(=O)N[C@@H](CCN)C(=O)NCC(N)=O)NC(=O)[C@H](CC(N)=O)NC(=O)[C@H](CC(=O)NC)NC1=O (H-CFID(NHMe)NCP[Dab]G-NH2; disulfide 1-6)	> 10 µM
CC[C@H](C)[C@@H]1NC(=O)[C@H](C)NC(=O)[C@@H](N)CSSC[C@@H](C(=O)N2CCC[C@H]2C(=O)N[C@@H](CCN)C(=O)NCC(N)=O)NC(=O)[C@H](CC(N)=O)NC(=O)[C@H](CCC(N)=O)NC1=O (H-CAIQNCP[Dab]G-NH2; disulfide 1-6)	> 10 µM
CC[C@H](C)[C@@H]1NC(=O)[C@H](Cc2ccccc2)NC(=O)[C@@H](N)CSSC[C@@H](C(=O)N2CCC[C@H]2C(=O)N[C@@H](CCCN)C(=O)NCC(N)=O)NC(=O)[C@H](CC(N)=O)NC(=O)[C@H](CC(=O)N(C)C)NC1=O (H-CFID(NMe2)NCP[Orn]G-NH2; disulfide 1-6)	> 10 µM

Reference source for all entries: ChEMBL document CHEMBL1817572
